system: MOLT-4; assay: Cytotoxicity in human MOLT-4 cells assessed as reduction in cell viability incubated for 72 hrs by cell-Titer-Glo luminescent cell viability assay; assay type: cell-based; conditions: MOLT-4, 72 h
pIC50: −log10 of the molar value.
Property: pIC50

> print(dat)
                            chemical.string  target.system  experimental.result
1  O=C(NO)c1ccc(CN(Cc2nnnn2Cc2ccccc2)C(=O)c2ccccc2C(F)(F)F)cc1         MOLT-4                 4.37

----------
biological target: Histone deacetylase 8 (Homo sapiens, UniProt Q9BY41); test: Inhibition of human recombinant HDAC8 using Boc-Lys-(epsilon-Tfa)-AMC fluorogenic substrate incubated for 90 mins by fluorescence based assay
Sequence (Q9BY41 whole entry): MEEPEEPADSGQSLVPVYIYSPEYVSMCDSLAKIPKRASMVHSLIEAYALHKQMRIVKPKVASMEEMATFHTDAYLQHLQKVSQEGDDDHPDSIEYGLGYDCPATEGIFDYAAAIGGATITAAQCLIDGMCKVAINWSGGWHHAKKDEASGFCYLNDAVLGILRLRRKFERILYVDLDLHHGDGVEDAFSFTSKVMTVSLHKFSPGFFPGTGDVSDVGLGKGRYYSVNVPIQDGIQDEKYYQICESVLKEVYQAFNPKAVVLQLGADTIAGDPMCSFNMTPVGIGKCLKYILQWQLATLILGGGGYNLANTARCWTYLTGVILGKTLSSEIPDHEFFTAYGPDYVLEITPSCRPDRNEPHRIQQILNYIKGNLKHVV
pIC50: −log10 of the molar value.
Property: pIC50

> print(dat)
                            chemical.string                             target.system  experimental.result
1  O=C(NO)c1ccc(CN(Cc2nnnn2Cc2ccccc2)C(=O)c2ccccc2C(F)(F)F)cc1  Histone deacetylase 8 (Homo sapiens, UniProt Q9BY41)                 4.83

----------
molecular target: Histone deacetylase 1 (Homo sapiens); assay: Inhibition of human recombinant HDAC1 using ZMAL (Z-Lys(Ac)-AMC) fluorogenic substrate incubated for 90 mins by fluorescence based assay
Sequence (Q13547 whole entry): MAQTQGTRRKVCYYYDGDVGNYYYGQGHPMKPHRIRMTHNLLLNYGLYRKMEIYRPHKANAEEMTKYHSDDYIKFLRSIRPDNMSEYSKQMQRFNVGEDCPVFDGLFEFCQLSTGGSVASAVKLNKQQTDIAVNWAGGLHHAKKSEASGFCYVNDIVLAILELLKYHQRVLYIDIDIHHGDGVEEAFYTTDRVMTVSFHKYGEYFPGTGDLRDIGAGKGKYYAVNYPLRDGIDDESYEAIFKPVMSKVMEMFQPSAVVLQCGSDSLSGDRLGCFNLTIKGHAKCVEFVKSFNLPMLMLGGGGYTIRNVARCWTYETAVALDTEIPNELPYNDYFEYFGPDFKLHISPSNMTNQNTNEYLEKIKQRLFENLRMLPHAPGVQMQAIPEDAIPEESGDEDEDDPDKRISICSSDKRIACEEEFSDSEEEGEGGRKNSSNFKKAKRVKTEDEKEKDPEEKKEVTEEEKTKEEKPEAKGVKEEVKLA
pIC50: −log10 of the molar value.
Some compounds, each annotated with its measured pIC50.
Property: pIC50

> print(dat)
                                   compound                         target.system  property  experimental.result
1       O=C(NO)c1ccc(CNCc2nnnn2C2CCCCC2)cc1  Histone deacetylase 1 (Homo sapiens)     pIC50                 5.69
2       CC(C)(C)n1nnnc1CNCc1ccc(C(=O)NO)cc1  Histone deacetylase 1 (Homo sapiens)     pIC50                 5.08
3      O=C(NO)c1ccc(CNCc2nnnn2Cc2ccccc2)cc1  Histone deacetylase 1 (Homo sapiens)     pIC50                 5.61
4  Cc1ccccc1C(=O)N(Cc1ccc(C(=O)NO)cc1)Cc1nnnn1C1CCCCC1  Histone deacetylase 1 (Homo sapiens)     pIC50                 5.52
5  O=C(NO)c1ccc(CN(Cc2nnnn2Cc2ccccc2)C(=O)c2ccccc2)cc1  Histone deacetylase 1 (Homo sapiens)     pIC50                 5.91
6  O=C(NO)c1ccc(CN(Cc2nnnn2Cc2ccccc2)C(=O)c2ccccc2C(F)(F)F)cc1  Histone deacetylase 1 (Homo sapiens)     pIC50                 5.29
7  O=C(NO)c1ccc(CNC(c2ccccc2)c2nnnn2Cc2ccccc2)cc1 (configuration not stated)  Histone deacetylase 1 (Homo sapiens)     pIC50                 5.47
